Test system: 2Sp-muMax20 (muMax20 with two 2,6-bis(methyl)pyridine Cys staples)
assay_protocol: PBM 8-mer E-score (E-score (rank enrichment, -0.5 to 0.5)); higher = stronger preferential binding
Whole data set: some 33,000 sequences, median “E-score (rank enrichment, -0.5 to 0.5)” near -0.0043, cut for the highest 2% near 0.24. This is one part of a sample in which the highest values are shown more often than they occur.
Quick rule: PBM 8-mer E-score of at least 0.1 means 1, below that means -1.

Reference set (5 entries):
| sequence_code | target_entity | category |
| --- | --- | --- |
| GTTATAAA | 2Sp-muMax20 (muMax20 with two 2,6-bis(methyl)pyridine Cys staples) | 1 |
| TAATATAA | 2Sp-muMax20 (muMax20 with two 2,6-bis(methyl)pyridine Cys staples) | 1 |
| AAACATAA | 2Sp-muMax20 (muMax20 with two 2,6-bis(methyl)pyridine Cys staples) | 1 |
| ATTATAAT | 2Sp-muMax20 (muMax20 with two 2,6-bis(methyl)pyridine Cys staples) | 1 |
| CATCTAGC | 2Sp-muMax20 (muMax20 with two 2,6-bis(methyl)pyridine Cys staples) | 1 |

Now consider a different sequence.
Is PBM 8-mer E-score at least 0.1? Consider CTTATAAG
-1
